# target_or_system: a2B adrenergic receptor (Homo sapiens)
# Sequence (P18089 whole entry): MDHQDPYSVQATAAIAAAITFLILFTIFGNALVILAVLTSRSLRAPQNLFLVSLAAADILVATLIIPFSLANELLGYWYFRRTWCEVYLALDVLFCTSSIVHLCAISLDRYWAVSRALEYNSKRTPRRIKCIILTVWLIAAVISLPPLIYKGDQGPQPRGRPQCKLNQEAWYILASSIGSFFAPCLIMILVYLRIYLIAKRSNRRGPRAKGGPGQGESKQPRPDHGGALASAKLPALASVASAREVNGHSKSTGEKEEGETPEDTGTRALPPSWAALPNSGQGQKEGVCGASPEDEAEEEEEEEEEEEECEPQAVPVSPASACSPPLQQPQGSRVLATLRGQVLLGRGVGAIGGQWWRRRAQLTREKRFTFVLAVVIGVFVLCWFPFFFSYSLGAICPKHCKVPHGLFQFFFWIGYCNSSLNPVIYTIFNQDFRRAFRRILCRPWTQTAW
# method_summary: TGFα shedding assay in transfected HEK293 cells, noradrenaline stimulation
# study_conditions: 5 nM Noradrenaline stimulation; HEK293 cells; read-out: IC50, shedding assay, α2B
Here, each record is paired with measured IC50 data.

Answered cases to consult:
{"columns": ["given_smiles", "result_value"],
 "data": [
  ["CCN1/C(=C/C(C)=O)Sc2ccc(OC)cc21", "> 30 µM"],
  ["CCN1/C(=C/C(C)=O)Sc2ccc(F)cc21", "1.2 µM"]
]}

Next item in the queue.
Prompt: State its IC50 for this compound: "CCN1/C(=C/C(C)=O)Sc2cc(OC)ccc21"
Completion: > 30 µM

----------
Here, each record is paired with measured pIC50 data.
# target_or_system: a2A adrenergic receptor (Homo sapiens, UniProt P08913)
# Sequence (P08913 whole entry): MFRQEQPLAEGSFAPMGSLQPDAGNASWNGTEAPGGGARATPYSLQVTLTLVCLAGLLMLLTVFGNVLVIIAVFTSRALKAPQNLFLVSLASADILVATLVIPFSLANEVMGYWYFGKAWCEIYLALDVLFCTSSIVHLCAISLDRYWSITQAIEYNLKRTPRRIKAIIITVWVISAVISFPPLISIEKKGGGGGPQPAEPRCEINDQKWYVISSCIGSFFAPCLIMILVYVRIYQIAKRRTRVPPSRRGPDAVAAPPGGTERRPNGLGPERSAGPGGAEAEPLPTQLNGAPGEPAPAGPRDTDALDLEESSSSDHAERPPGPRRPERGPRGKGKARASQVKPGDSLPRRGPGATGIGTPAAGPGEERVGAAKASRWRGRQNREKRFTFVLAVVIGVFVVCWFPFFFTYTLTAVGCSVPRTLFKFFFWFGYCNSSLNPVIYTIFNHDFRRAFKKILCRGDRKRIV
# method_summary: TGFα shedding assay in transfected HEK293 cells, noradrenaline stimulation
# study_conditions: 5 nM Noradrenaline stimulation, read-out: IC50, shedding assay, α2A
pIC50: −log10 of the molar value.

Answered cases to consult:
{"columns": ["given_smiles", "readout_name", "result_value"],
 "data": [
  ["CCN1/C(=C/C(C)=O)Sc2ccc(OC)cc21", "pIC50", "< 4.52"],
  ["CCN1/C(=C/C(C)=O)Sc2cc(OC)ccc21", "pIC50", "< 4.52"]
]}

Next item in the queue.
Prompt: State its pIC50 for this compound: "CCN1/C(=C/C(C)=O)Sc2ccc(F)cc21"
Completion: < 4.52

----------
# target_or_system: UniProt:P18825
# Sequence (P18825 whole entry): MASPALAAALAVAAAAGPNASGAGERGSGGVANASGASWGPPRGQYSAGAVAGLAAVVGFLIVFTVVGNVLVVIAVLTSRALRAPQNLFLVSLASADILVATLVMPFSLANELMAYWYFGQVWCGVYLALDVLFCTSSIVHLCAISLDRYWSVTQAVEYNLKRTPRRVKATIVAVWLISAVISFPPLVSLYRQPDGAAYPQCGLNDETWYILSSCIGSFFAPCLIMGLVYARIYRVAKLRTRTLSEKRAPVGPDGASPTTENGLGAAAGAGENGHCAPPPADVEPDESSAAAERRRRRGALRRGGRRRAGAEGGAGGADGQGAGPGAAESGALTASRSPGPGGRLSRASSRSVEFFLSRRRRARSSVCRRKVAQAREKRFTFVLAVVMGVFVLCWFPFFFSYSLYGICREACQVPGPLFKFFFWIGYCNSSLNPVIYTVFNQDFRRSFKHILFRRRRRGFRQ
# method_summary: TGFα shedding assay in transfected HEK293 cells, noradrenaline stimulation
# study_conditions: 5 nM Noradrenaline stimulation, read-out: IC50, shedding assay, α2C
pIC50: −log10 of the molar value.
Here, each record is paired with measured pIC50 data.

Answered cases to consult:
{"columns": ["compound", "result_value"],
 "data": [
  ["CCN1/C(=C/C(C)=O)Sc2ccc(OC)cc21 [Compound 2]", "< 4.52"],
  ["CCN1/C(=C/C(C)=O)Sc2ccc(F)cc21 [Compound 1]", "< 4.52"]
]}

Prompt: State its pIC50 for this compound: CCN1/C(=C/C(C)=O)Sc2cc(OC)ccc21 [Compound 3]
Completion: < 4.52
